experiment: S. cerevisiae growth inhibition in restrictive medium, OD615, pilot screen, restrictive growth control, yeast lifespan reduction project (AID 706); conditions: OD615, 48 h, at 10 µM, stronger effect = higher value;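 note: modified DeaD lifespan yeast strain shifted to restrictive glucose medium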
Observed Property: growth inhibition (%)
Reply with just the number (in %).

For CCc1ccc(-n2c(O)cnc2Nc2nc(C)cc(C)n2)cc1 the compound record lists growth inhibition as -12.2

For Cc1cc(C)n2c(SCCN3C(=O)c4ccccc4C3=O)nnc2n1 the compound record lists growth inhibition as -8.13

For COC(=O)c1cc(=O)n(Cc2ccc3c(c2)OCO3)c(=Nc2ccccc2)s1 the compound record lists growth inhibition as -1

For CCCc1nnc2n1N=C(c1ccc(-c3cc(Cl)ccc3Cl)o1)CS2 the compound record lists growth inhibition as 4.29

For Cc1ccc(-c2cc3nc4c(c(=O)n3[nH]2)CCCC4)cc1 the compound record lists growth inhibition as -22.5

For CCOC(=O)C1=C(C)N(C)C(=O)NC1c1cccc(O)c1 (stereo unspecified) the compound record lists growth inhibition as 4.03

For COC(=O)C1=C(C)Nc2nnnn2C1c1ccc(Cl)cc1Cl (stereo unspecified) the compound record lists growth inhibition as -1.33

For Cc1cccc(C)c1OCC(O)Cn1ccnc1C (stereo unspecified) the compound record lists growth inhibition as 0.215

For Cc1ccc(NC(=O)Cn2cc3c(n2)CCC(C)C3)cc1 (stereo unspecified) the compound record lists growth inhibition as 2.22

For O=C(Nc1c(C(=O)O)oc2ccc(Br)cc12)c1ccccc1 the compound record lists growth inhibition as 2.99

For COc1ccc(N2CCN(C(=O)c3c(-c4ccccc4)noc3C)CC2)cc1 the compound record lists growth inhibition as -10.4

For CCOc1ccc(C2CC(c3ccccc3C)n3nc(N)nc3N2)cc1 (stereo unspecified) the compound record lists growth inhibition as 0.985

For CCOC(=O)Cn1c(=O)oc2cc(S(=O)(=O)NCc3ccccn3)ccc21 the compound record lists growth inhibition as -21.4

For O=C(Cn1c(=O)sc2ccccc21)NCCOc1ccccc1F the compound record lists growth inhibition as 11.1

For CN1CCc2c(sc3c2C(=O)NC(c2cccc(OC(=O)c4cccs4)c2)N3)C1 (stereo unspecified) the compound record lists growth inhibition as 11.5

* * *

assay: MRP1 drug-resistance reversers in H69AR cells – cell-based, doxorubicin co-treatment, pilot screen (AID 601); conditions: H69AR cells + 2 uM doxorubicin, CellTiter-Glo, 72 h; measured here: viability with 2 uM doxorubicin; at 10 µM; stronger effect = lower value
# key: entry, value: viability
Reply with just the number (in %).

Example cases with answers are listed next.
Cc1ccc(NC(=O)CN(c2ccc3c(c2)OCO3)S(=O)(=O)c2c(C)n[nH]c2C)cc1; 91.5
Cc1nnc(SCC(=O)NCc2ccccc2)s1; 99.3
COCCCNC(=O)Cn1cc2c(n1)CCC(C)C2 (stereo not given); 91.8

For CC(C)c1ncc(C(O)c2cccc3ccccc23)n1C (stereo not given) the molecule record lists viability as 83.5

For Cc1cccc(Cn2c(SCCN3CCCCC3)nc3c2c(=O)[nH]c(=O)n3C)c1 the molecule record lists viability as 79.8

For O=C(Nc1ccc(N2C(=O)C3C4C=CC(C4)C3C2=O)cc1)Nc1nncs1 (stereo not given) the molecule record lists viability as 85.6

For CC(C)NC(=O)c1ccc2c(c1)nnn2C the molecule record lists viability as 98.8

For CCCc1cc(C(=O)Nc2sc(C)c(C)c2C(=O)OCC)no1 the molecule record lists viability as 92

For COC(=O)C1CCN(C(=O)CSc2nnc(-c3ccncc3)o2)CC1 the molecule record lists viability as 89

For COc1cccc(CNC(=O)Cn2c(=O)oc3ccccc32)c1OC the molecule record lists viability as 92.2

For CC(C)Cc1nnc(NS(=O)(=O)c2ccc(Cl)cc2)s1 the molecule record lists viability as 94.7

For O=C(CC1(O)C(=O)Nc2ccccc21)c1ccc2c(c1)OCO2 (stereo not given) the molecule record lists viability as 88.5

For COc1ccc(NC(=O)CSc2nc3c(c(=O)n2-c2ccc(F)cc2)SCC3)cc1 the molecule record lists viability as 92.2

For Cc1nc2sc(C(c3cccs3)N3CCC(C(N)=O)CC3)c(O)n2n1 (stereo not given) the molecule record lists viability as 96.2

For CCC(C)NC(=O)c1cc(CC(C)C)on1 (stereo not given) the molecule record lists viability as 94.7

For COc1ccccc1-n1c(=O)[nH]c2c(C(N)=O)nc(CC(C)C)nc21 the molecule record lists viability as 93

For COc1ccccc1CNC(=O)C1CCC(CNc2c(N3CCOCC3)c(=O)c2=O)CC1 (stereo not given) the molecule record lists viability as 92.8

For Cc1ccc(S(=O)(=O)N2CCOCC2)cc1C(=O)Nc1nc(-c2cccnc2)cs1 the molecule record lists viability as 94.3

For CC(C)(C)NC(=O)Cn1c(=O)oc2ccc(Cl)cc21 the molecule record lists viability as 64.1

For COc1cccc2c(=O)c3c(cnn3C)n(C)c12 the molecule record lists viability as 92.8
